These measurements were taken from ChEMBL document CHEMBL2146397.

Biological target: Insulin-like growth factor 1 receptor (Homo sapiens)
Assay: Activity at pre-activated human GST-His6-tagged IGF-1R expressed in Sf9 cells assessed as initial phosphorylation rate at 10 uM measured every 2 mins for 60 mins by Michaelis-Menten constant based ADP Quest assay
Peptide text beside a SMILES is read from it.
observation type: Activity (nM/s)
API: value field is a number in nM/s; no unit string.

{"molecule": "CNC(=O)[C@H](Cc1c[nH]c2ccccc12)NC(=O)[C@H](CCC(=O)O)NC(=O)[C@H](Cc1ccccc1)NC(=O)[C@H](Cc1ccc(O)cc1)NC(=O)C1CCC1C(=O)O (some centres not stated) (HELM PEPTIDE1{[O=C(O)C1CCC1C(=O)[*:2]].Y.F.E.W.[CN[*:1]]}$$$$V2.0)", "Activity [nM/s]": 4.3}

Could you now consider this next molecule?
Note down Activity recorded for CNC(=O)[C@H](Cc1ccccc1)NC(=O)[C@H](CCC(=O)O)NC(=O)[C@H](Cc1ccccc1)NC(=O)[C@H](Cc1ccc(O)cc1)NC(=O)[C@@H]1CCCC[C@H]1C(=O)O (HELM PEPTIDE1{[O=C(O)[C@@H]1CCCC[C@H]1C(=O)[*:2]].Y.F.E.F.[CN[*:1]]}$$$$V2.0) 0.17

----------
Target: Insulin-like growth factor 1 receptor (Homo sapiens, UniProt P08069)
Sequence (P08069 31-736 limits assumed): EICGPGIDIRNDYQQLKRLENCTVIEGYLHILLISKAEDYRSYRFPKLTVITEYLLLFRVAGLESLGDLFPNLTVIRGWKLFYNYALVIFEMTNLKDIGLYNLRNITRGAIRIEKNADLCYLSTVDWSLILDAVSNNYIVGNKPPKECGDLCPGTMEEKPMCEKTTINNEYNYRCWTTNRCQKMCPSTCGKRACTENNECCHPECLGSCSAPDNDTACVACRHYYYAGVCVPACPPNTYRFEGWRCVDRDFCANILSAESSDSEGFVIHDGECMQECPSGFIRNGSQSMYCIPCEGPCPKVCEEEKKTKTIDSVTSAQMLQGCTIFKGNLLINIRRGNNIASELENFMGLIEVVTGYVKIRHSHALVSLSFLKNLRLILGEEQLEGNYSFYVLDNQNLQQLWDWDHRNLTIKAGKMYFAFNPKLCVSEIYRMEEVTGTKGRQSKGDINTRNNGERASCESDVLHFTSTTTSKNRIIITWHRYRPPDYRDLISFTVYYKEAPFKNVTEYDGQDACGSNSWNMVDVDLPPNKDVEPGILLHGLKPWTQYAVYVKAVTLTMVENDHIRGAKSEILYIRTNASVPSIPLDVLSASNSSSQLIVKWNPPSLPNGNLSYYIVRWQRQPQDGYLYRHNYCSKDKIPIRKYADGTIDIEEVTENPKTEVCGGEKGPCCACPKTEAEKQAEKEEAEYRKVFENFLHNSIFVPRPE
Sequence (P08069 741-1367 limits assumed): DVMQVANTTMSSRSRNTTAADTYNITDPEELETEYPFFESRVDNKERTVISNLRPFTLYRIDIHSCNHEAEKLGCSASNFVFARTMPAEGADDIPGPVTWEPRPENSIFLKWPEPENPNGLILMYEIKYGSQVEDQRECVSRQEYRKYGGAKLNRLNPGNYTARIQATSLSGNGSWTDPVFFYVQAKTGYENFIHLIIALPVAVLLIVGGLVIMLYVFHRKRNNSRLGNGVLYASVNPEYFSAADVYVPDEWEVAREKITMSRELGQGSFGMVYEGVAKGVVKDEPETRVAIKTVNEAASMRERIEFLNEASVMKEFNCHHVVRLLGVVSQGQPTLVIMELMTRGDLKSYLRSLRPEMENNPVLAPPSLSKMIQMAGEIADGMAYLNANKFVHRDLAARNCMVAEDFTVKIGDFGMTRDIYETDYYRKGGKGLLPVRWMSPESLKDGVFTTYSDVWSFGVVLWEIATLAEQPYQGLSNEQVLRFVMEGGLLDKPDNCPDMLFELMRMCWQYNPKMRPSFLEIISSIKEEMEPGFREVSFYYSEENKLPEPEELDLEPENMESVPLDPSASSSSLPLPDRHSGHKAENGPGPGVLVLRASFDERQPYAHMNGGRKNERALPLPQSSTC
Assay: Activity at pre-activated human GST-His6-tagged IGF-1R expressed in Sf9 cells assessed as initial phosphorylation rate at 10 uM measured every 2 mins for 60 mins by Michaelis-Menten constant based ADP Quest assay
Square brackets hold non-standard residues; d marks the D form. Peptide text beside a SMILES is read from it. * marks the point of attachment. Trp(6-Cl) = N[C@@H](Cc1c[nH]c2cc(Cl)ccc12)C(=O)O; Phe(4-Cl) = N[C@@H](Cc1ccc(Cl)cc1)C(=O)O; X2 = O=C(O)[C@H]1CCCC[C@@H]1C(=O)*
Where Activity equals or exceeds 5 nM/s, the correct label is 1; where it does not, the label is 0.

See these solved cases before continuing.
{"compound": "CNC(=O)[C@H](Cc1c[nH]c2cc(Cl)ccc12)NC(=O)[C@H](CCC(=O)O)NC(=O)[C@H](Cc1ccccc1)NC(=O)[C@H](Cc1ccc(O)cc1)NC(=O)[C@H]1CCCC[C@@H]1C(=O)O (X2-YFE[Trp(6-Cl)]-NHMe)", "measured on": "Insulin-like growth factor 1 receptor (Homo sapiens, UniProt P08069)", "class assignment": 1}
{"compound": "CNC(=O)[C@H](Cc1c[nH]c2ccccc12)NC(=O)[C@H](CCC(=O)O)NC(=O)[C@H](Cc1ccccc1)NC(=O)[C@H](Cc1ccc(O)cc1)NC(=O)[C@H](CC(=O)O)NC(C)=O", "measured on": "Insulin-like growth factor 1 receptor (Homo sapiens, UniProt P08069)", "class assignment": 1}
{"compound": "CNC(=O)[C@H](Cc1c[nH]c2cc(Cl)ccc12)NC(=O)[C@H](CCC(=O)O)NC(=O)[C@H](Cc1ccccc1)NC(=O)[C@H](Cc1ccc(O)cc1)NC(=O)[C@H](CC(=O)O)NC(C)=O (HELM PEPTIDE1{[ac].D.Y.F.E.[O=C([C@H](Cc1c[nH]c2cc(Cl)ccc12)N[*:1])[*:2]].[CN[*:1]]}$$$$V2.0)", "measured on": "Insulin-like growth factor 1 receptor (Homo sapiens, UniProt P08069)", "class assignment": 1}
{"compound": "CNC(=O)[C@H](Cc1ccc(Cl)cc1)NC(=O)[C@H](CCC(=O)O)NC(=O)[C@H](Cc1ccccc1)NC(=O)[C@H](Cc1ccc(O)cc1)NC(=O)[C@H]1CCCC[C@@H]1C(=O)O (X2-YFE[Phe(4-Cl)]-NHMe)", "measured on": "Insulin-like growth factor 1 receptor (Homo sapiens, UniProt P08069)", "class assignment": 0}

Confirm if Activity reported for the compound `CNC(=O)[C@H](Cc1c[nH]c2ccccc12)NC(=O)[C@H](CCC(=O)O)NC(=O)[C@H](Cc1ccccc1)NC(=O)[C@H](Cc1ccc(O)cc1)NC(=O)[C@H]1CCCC[C@@H]1C(=O)O` is 5 nM/s or above. 1

Confirm if Activity reported for the compound CNC(=O)[C@H](Cc1ccccc1)NC(=O)[C@H](CCC(=O)O)NC(=O)[C@H](Cc1ccccc1)NC(=O)[C@H](Cc1ccc(O)cc1)NC(=O)CCC(=O)O (HELM PEPTIDE1{[O=C(O)CCC(=O)[*:2]].Y.F.E.F.[CN[*:1]]}$$$$V2.0) is 5 nM/s or above. 0

Confirm if Activity reported for the compound CNC(=O)[C@H](Cc1c[nH]c2ccccc12)NC(=O)[C@H](CCC(=O)O)NC(=O)[C@H](Cc1ccccc1)NC(=O)[C@H](Cc1ccc(O)cc1)NC(=O)[C@@H]1CCC[C@H]1C(=O)O (HELM PEPTIDE1{[O=C(O)[C@@H]1CCC[C@H]1C(=O)[*:2]].Y.F.E.W.[CN[*:1]]}$$$$V2.0) is 5 nM/s or above. 1

Confirm if Activity reported for the compound CNC(=O)[C@H](Cc1ccc(Cl)cc1)NC(=O)[C@H](CCC(=O)O)NC(=O)[C@H](Cc1ccccc1)NC(=O)[C@H](Cc1ccc(O)cc1)NC(=O)[C@H](CC(=O)O)NC(C)=O (HELM PEPTIDE1{[ac].D.Y.F.E.[O=C([C@H](Cc1ccc(Cl)cc1)N[*:1])[*:2]].[CN[*:1]]}$$$$V2.0) is 5 nM/s or above. 0

Confirm if Activity reported for the compound CNC(=O)[C@H](Cc1c[nH]c2ccccc12)NC(=O)[C@H](CCC(=O)O)NC(=O)[C@H](Cc1ccccc1)NC(=O)[C@H](Cc1ccc(O)cc1)NC(=O)c1ccccc1[N+](=O)[O-] (HELM PEPTIDE1{[O=C(c1ccccc1[N+](=O)[O-])[*:2]].Y.F.E.W.[CN[*:1]]}$$$$V2.0) is 5 nM/s or above. 0

Confirm if Activity reported for the compound CNC(=O)[C@H](Cc1ccccc1)NC(=O)[C@H](CCC(=O)O)NC(=O)[C@H](Cc1ccccc1)NC(=O)[C@H](Cc1ccc(O)cc1)NC(=O)c1ccccc1[N+](=O)[O-] (HELM PEPTIDE1{[O=C(c1ccccc1[N+](=O)[O-])[*:2]].Y.F.E.F.[CN[*:1]]}$$$$V2.0) is 5 nM/s or above. 0

----------
Target: Insulin-like growth factor 1 receptor (Homo sapiens, UniProt P08069)
Experiment: Activity at pre-activated human GST-His6-tagged IGF-1R expressed in Sf9 cells assessed as initial phosphorylation rate at 10 uM measured every 2 mins for 60 mins by Michaelis-Menten constant based ADP Quest assay
Peptide text beside a SMILES is read from it.
observation type: Activity
Please provide the amount together with its unit, number first.

{"molecule": "CNC(=O)[C@H](Cc1ccc(Cl)cc1)NC(=O)CNC(=O)[C@H](Cc1ccccc1)NC(=O)[C@H](Cc1ccc(O)cc1)NC(=O)[C@H](CC(=O)O)NC(C)=O (HELM PEPTIDE1{[ac].D.Y.F.G.[O=C([C@H](Cc1ccc(Cl)cc1)N[*:1])[*:2]].[CN[*:1]]}$$$$V2.0)", "measured on": "Insulin-like growth factor 1 receptor (Homo sapiens, UniProt P08069)", "Activity": "0.47 nM/s"}

Could you now consider this next molecule?
Note down Activity recorded for `CNC(=O)[C@H](Cc1c[nH]c2ccccc12)NC(=O)[C@H](CCC(=O)O)NC(=O)[C@H](Cc1ccccc1)NC(=O)[C@H](Cc1ccc(O)cc1)NC(=O)[C@@H]1CCCC[C@H]1C(=O)O` 1.1 nM/s

----------
Biological target: Insulin-like growth factor 1 receptor (Homo sapiens)
Assay: Activity at pre-activated human GST-His6-tagged IGF-1R expressed in Sf9 cells assessed as initial phosphorylation rate at 10 uM measured every 2 mins for 60 mins by Michaelis-Menten constant based ADP Quest assay
Peptide text beside a SMILES is read from it.
observation type: Activity (nM/s)
API: value field is a number in nM/s; no unit string.

Consider the worked cases shown below.
{"compound": "CNC(=O)[C@H](Cc1c[nH]c2ccccc12)NC(=O)[C@H](CCC(=O)O)NC(=O)[C@H](Cc1ccccc1)NC(=O)[C@H](Cc1ccc(O)cc1)NC(=O)[C@H](CCC(=O)O)NC(C)=O", "quantitative result": 2.5}
{"compound": "CNC(=O)[C@H](Cc1ccc(Cl)c(Cl)c1)NC(=O)CNC(=O)[C@H](Cc1ccccc1)NC(=O)[C@H](Cc1ccc(O)cc1)NC(=O)[C@H](CC(=O)O)NC(C)=O (HELM PEPTIDE1{[ac].D.Y.F.G.[O=C([C@H](Cc1ccc(Cl)c(Cl)c1)N[*:1])[*:2]].[CN[*:1]]}$$$$V2.0)", "quantitative result": 0.55}
{"compound": "CNC(=O)[C@H](Cc1ccc2ccccc2c1)NC(=O)CNC(=O)[C@H](Cc1ccccc1)NC(=O)[C@H](Cc1ccc(O)cc1)NC(=O)[C@H](CC(=O)O)NC(C)=O (HELM PEPTIDE1{[ac].D.Y.F.G.[O=C([C@H](Cc1ccc2ccccc2c1)N[*:1])[*:2]].[CN[*:1]]}$$$$V2.0)", "quantitative result": 0.24}
{"compound": "CNC(=O)[C@@H](Cc1c[nH]c2ccccc12)NC(=O)[C@H](CCC(=O)O)NC(=O)[C@H](Cc1ccccc1)NC(=O)[C@H](Cc1ccc(O)cc1)NC(=O)[C@H]1CCCC[C@@H]1C(=O)O", "quantitative result": 0.51}
{"compound": "CNC(=O)[C@H](Cc1ccc(Cl)cc1)NC(=O)[C@H](CCC(=O)O)NC(=O)[C@H](Cc1ccccc1)NC(=O)[C@H](Cc1ccc(O)cc1)NC(=O)[C@H](CCC(=O)O)NC(C)=O (HELM PEPTIDE1{[ac].E.Y.F.E.[O=C([C@H](Cc1ccc(Cl)cc1)N[*:1])[*:2]].[CN[*:1]]}$$$$V2.0)", "quantitative result": 0.26}

Note down Activity recorded for CNC(=O)[C@H](Cc1ccccc1)NC(=O)[C@H](CCC(=O)O)NC(=O)[C@H](Cc1ccccc1)NC(=O)[C@H](Cc1ccc(O)cc1)NC(=O)[C@H](CC(=O)O)NC(C)=O (HELM PEPTIDE1{[ac].D.Y.F.E.F.[CN[*:1]]}$$$$V2.0) 1.7

Note down Activity recorded for `CNC(=O)[C@H](Cc1c[nH]c2ccccc12)NC(=O)[C@H](CCC(=O)O)NC(=O)[C@H](Cc1ccccc1)NC(=O)[C@H](Cc1ccc(O)cc1)NC(=O)[C@@H]1CCCC[C@@H]1C(=O)O` 4.6

Note down Activity recorded for CNC(=O)[C@H](Cc1ccccc1)NC(=O)[C@H](CCC(=O)O)NC(=O)[C@H](Cc1ccccc1)NC(=O)[C@H](Cc1ccc(O)cc1)NC(=O)C1CCC1C(=O)O (stereo partly specified) (HELM PEPTIDE1{[O=C(O)C1CCC1C(=O)[*:2]].Y.F.E.F.[CN[*:1]]}$$$$V2.0) 1.9

Note down Activity recorded for CNC(=O)[C@H](Cc1c[nH]c2ccccc12)NC(=O)[C@H](CCC(=O)O)NC(=O)[C@H](Cc1ccccc1)NC(=O)[C@H](Cc1ccc(O)cc1)NC(C)=O (HELM PEPTIDE1{[ac].Y.F.E.W.[CN[*:1]]}$$$$V2.0) 0.17
